- System: RXF 393 renal
- procedureDetails: NCI-60 one-dose screen, 48 h
- measurementSetup: 10 µM unless noted
The panel holds about 83,000 compounds, 20% with a hit somewhere; the sample as a whole holds those more often. Activity calls are given as the source filed them. Rule for the calls: active = growth percent below 10; inactive = the rest.
Select the matching outcome among 1 (active), 0 (inactive)

[[record]]
compound = "CNC(=O)c1cccc(Cn2nc(C)c(NC(=O)c3ccc(COc4ccc(C(F)(F)F)cc4C)cc3)c2C)c1"
answerlabel = 0

[[record]]
compound = "NC(=O)CSSCC(N)=O"
answerlabel = 0

[[record]]
compound = "Cn1c(N2NC(=O)C(N=Nc3ccc(S(N)(=O)=O)cc3)C2=O)nc(-c2ccco2)c(C#N)c1=O (stereo not given)"
answerlabel = 1

[[record]]
compound = "O=[N+]([O-])CC(c1ccccc1)c1c[nH]c2ccccc12 (stereo not given)"
answerlabel = 0

[[record]]
compound = "COc1ccc(C(=O)CC#N)cc1"
answerlabel = 0


# input for lookup
Lab log entry: COC(=O)C(CC=O)C(=O)C(=O)Nc1cccc(C(F)(F)F)c1 (stereo not given) — outcome as called in the assay?
0

* * *

- Tested on: NCI-H522 lung
- procedureDetails: NCI-60 one-dose screen, 48 h (100 = growth as untreated, 0 = no growth, -100 = all killed)
- measurementSetup: 10 µM unless noted
About 83,000 compounds went through this panel and 20% of them were active in at least one assay; those are over-represented in the sample as a whole.
Label key: 1 means growth under 40%; 0 means growth of 40% or more.

See these solved cases before continuing.
[[record]]
compound = "CN[C@@H](C)C(=O)N[C@H]1CCS[C@H]2CC(C)(C)[C@@H](C(=O)N[C@H]3c4ccccc4C[C@H]3OCC#CC#CCO[C@@H]3Cc4ccccc4[C@@H]3NC(=O)[C@H]3N4C(=O)[C@@H](NC(=O)[C@H](C)NC)CCS[C@H]4CC3(C)C)N2C1=O"
answerlabel = 0

[[record]]
compound = "COc1ccc(C(=O)c2nc3ccccc3n2CC(=O)c2ccc(F)cc2)cc1"
answerlabel = 1

[[record]]
compound = "CN(C)c1ccc(C2C(C#N)=C(/N=C/c3ccccc3)Oc3c2ccc2ccccc32)cc1 (stereo not drawn)"
answerlabel = 1

[[record]]
compound = "O=S(=O)(NCCNc1nccc(-c2c(-c3cccc(O)c3)nc3occn23)n1)c1cccc(F)c1"
answerlabel = 0

[[record]]
compound = "Cc1cc2nc3c4cccc(O)c4n(CCN(C)C)c3nc2cc1C"
answerlabel = 1

[[record]]
compound = "O=C(Nc1ncc(Cc2cc(Cl)ccc2Cl)s1)c1cccs1"
answerlabel = 0

[[record]]
compound = "O=C(N/N=C/c1ccc(Oc2ccccc2)cc1)c1cnn2c1NC(c1ccccc1)C2 (stereo not drawn)"
answerlabel = 0


Please find the next compound below.
Field: below-cutoff. Rule: recorded growth strictly less than 40%. Subject: COc1ccc(CNCCN2C(=O)c3ccc4c5c(ccc(c35)C2=O)C(=O)N(CCNCc2ccc(OC)c(OC)c2OC)C4=O)c(OC)c1OC
1

* * *

Would you kindly list growth for each of these molecules?
- Test system: ACHN renal
- procedureDetails: NCI-60 one-dose screen, 48 h (100 = growth as untreated, 0 = no growth, -100 = all killed)
- measurementSetup: 10 µM unless noted
This is part of a sample that, as a whole, favours compounds with a hit. Of some 83,000 tested, about 20% had one in any assay.
Numbers only, in %.

Example entries begin here.
[[record]]
compoundsmiles = "O=C1Nc2cc(Cl)ccc2/C1=C\\c1c(-c2ccc(F)cc2)nc2ccccn12"
measuredproperty = "growth"
experimentalvalue = 41

[[record]]
compoundsmiles = "Cc1c(C)c([N+](=O)[O-])c(C)c([N+](=O)[O-])c1C"
measuredproperty = "growth"
experimentalvalue = 118

[[record]]
compoundsmiles = "CCCCNC(=O)Oc1ccc(/C(=C(\\C)c2ccccc2)c2ccc(OCCN3CCCCC3)cc2)cc1"
measuredproperty = "growth"
experimentalvalue = 90.1

[[record]]
compoundsmiles = "O=C(Cn1c[n+](CC(=O)c2ccc(-c3ccccc3)cc2)c2ccccc21)Nc1cccc2cccnc12"
measuredproperty = "growth"
experimentalvalue = 90.1


Turning now to a further record.
Which growth is reported for this molecule? Cc1cc2nc3c4cc([N+](=O)[O-])ccc4n(CCN(C)C)c3nc2cc1C
-13

* * *

- Test system: HS 578T breast
- procedureDetails: NCI-60 one-dose screen, 48 h (100 = growth as untreated, 0 = no growth, -100 = all killed)
- measurementSetup: 10 µM unless noted
This is part of a sample that, as a whole, favours compounds with a hit. Of some 83,000 tested, about 20% had one in any assay.
measuredProperty: growth (%)
Answers are plain numbers, in %.

Consider the worked cases shown below.
[[record]]
molecule = "O=C1Nc2cc(-c3ccc(NC(=O)c4ccccc4)cc3)ccc2/C1=C/c1ccc[nH]1"
subjectoftest = "HS 578T breast"
experimentalvalue = 115

[[record]]
molecule = "COc1ccc(/C=N/NC(=O)c2cnn3c2NC(c2ccccc2)C3)cc1OC (centres undefined)"
subjectoftest = "HS 578T breast"
experimentalvalue = 68

[[record]]
molecule = "O=C1c2ccc3c4c(ccc(c24)C(=O)N1CCCNCc1ccccc1)C(=O)N(CCCNCc1ccccc1)C3=O"
subjectoftest = "HS 578T breast"
experimentalvalue = -32.3

[[record]]
molecule = "O=C(/C=C(/C=C/c1csc2ccccc12)OB(F)F)/C=C/c1csc2ccccc12"
subjectoftest = "HS 578T breast"
experimentalvalue = 3.47

[[record]]
molecule = "CCCCCCCCOc1ccc(/C=N/Nc2cc(C)nc3ccc(Br)cc23)cc1"
subjectoftest = "HS 578T breast"
experimentalvalue = 64.1

[[record]]
molecule = "CCOC(=O)CSc1nc2ccccc2c(=O)n1Cc1ccc(S(N)(=O)=O)cc1"
subjectoftest = "HS 578T breast"
experimentalvalue = 97.9

[[record]]
molecule = "CN(C)c1ccc(C2C(C#N)=C(/N=C/c3ccccc3)Oc3c2ccc2ccccc32)cc1 (centres undefined)"
subjectoftest = "HS 578T breast"
experimentalvalue = 66.7

[[record]]
molecule = "O=S(=O)(NCCCNc1nccc(-c2c(-c3cccc(F)c3)nc3sccn23)n1)c1cccc2ccccc12"
subjectoftest = "HS 578T breast"
experimentalvalue = 55.9


Pending molecule:
Name the reported growth value associated with the molecule N#Cc1c(-c2ccccc2)nc2c(c(-c3ccccc3)nn2-c2ccccc2)c1-c1ccc(O)cc1
15.9

* * *

Give measured growth for each item. Keep answers brief.
- System: TK-10 renal
- procedureDetails: NCI-60 one-dose screen, 48 h (100 = growth as untreated, 0 = no growth, -100 = all killed)
- measurementSetup: 10 µM unless noted
- Procedure: Growth inhibition of the TK-10 human tumor cell line is measured as a screen for anti-cancer activity. Cells are grown in 96 well plates and exposed to the test compound for 48 hours. Compounds are tested at a single concentration, which is 10^-5 M for most compounds. The reported endpoint is percent growth (GI% or GIPRCNT), where numbers from 0 - 100% represent growth inhibition, and numbers from -100% - 0 represent cell death. For example, a value of 40 represents 60% growth inhibition. […]
About 83,000 compounds went through this panel and 20% of them were active in at least one assay; those are over-represented in the sample as a whole.
Answers are plain numbers, in %.

Take a look at these entries with their results.
[[record]]
compoundsmiles = "CN(C)CCn1c2ccc(Br)cc2c2nc3ccccc3nc21"
experimentalvalue = 62.4

[[record]]
compoundsmiles = "CN(CCN(C)c1ccc(C(=N)N)cc1)c1ccc(C(=N)N)cc1"
experimentalvalue = 115

[[record]]
compoundsmiles = "N#Cc1c(NC(=O)NCc2ccccc2)sc2c1CCCC2"
experimentalvalue = 49.1


Lab note: each molecule below needs its growth filled in.
1. Cc1ccc(NS(=O)(=O)c2ccc(-c3cnc(C4CC4)o3)cc2)cc1C(F)(F)F
2. CNC(=O)c1cncc(Cn2nc(C)c(NC(=O)c3ccc(COc4ccc(C(F)(F)F)cc4C)cc3)c2C)c1
3. CCNC(=O)Oc1ccc(/C(=C(\C)c2ccccc2)c2ccc(OCCN(CC)CC)cc2)cc1

1: 93.7; 2: 61.9; 3: 95.6

For the 4 molecules below, give their growth values.
1. O=C(/C=C(/C=C/c1coc2ccccc12)OB(F)F)/C=C/c1coc2ccccc12
2. CN1CCN(c2ccc(NC3=C(Cl)C(=O)c4ncccc4C3=O)cc2C(F)(F)F)CC1
3. O=C(CCN1CCCC1)Nc1ccc2c(NCCc3ccccc3)c3ccccc3nc2c1
4. C=C1C(=O)O[C@H]2[C@H]1CC/C(CNC(=O)CCc1ccc(OC)cc1)=C\CC[C@@]1(C)O[C@@H]21

1: 117; 2: -65.9; 3: 3.29; 4: 33.5

* * *

- System: UACC-62 melanoma
- procedureDetails: NCI-60 one-dose screen, 48 h
- measurementSetup: 10 µM unless noted
- Description: Growth inhibition of the UACC-62 human tumor cell line is measured as a screen for anti-cancer activity. Cells are grown in 96 well plates and exposed to the test compound for 48 hours. Compounds are tested at a single concentration, which is 10^-5 M for most compounds. The reported endpoint is percent growth (GI% or GIPRCNT), where numbers from 0 - 100% represent growth inhibition, and numbers from -100% - 0 represent cell death. For example, a value of 40 represents 60% growth inhibition. […]
This is part of a sample that, as a whole, favours compounds with a hit. Of some 83,000 tested, about 20% had one in any assay. Calls of active or inactive are those of the source. The calls were made as follows: active = growth percent below 10; inactive = the rest.
Write down the outcome that applies. Available outcomes: active, inactive

Take a look at these entries with their results.
[[record]]
compound = "COc1cc(C=O)ccc1OC1OC(COC(C)=O)C(OC(C)=O)C(OC(C)=O)C1OC(C)=O (stereo not given)"
answerlabel = "inactive"

[[record]]
compound = "C=CC(=O)N[C@@H](/C=C/C(=O)OCC)Cc1ccc(-c2cc(Cl)cc(Cl)c2)cc1"
answerlabel = "active"

[[record]]
compound = "O=C1Nc2cc(-c3ccc(NC(=O)c4ccccc4)cc3)ccc2/C1=C/c1ccc[nH]1"
answerlabel = "inactive"


What did the test return for CCN(CC)CCCC(C)Nc1cc(O)cc2cccnc12 (stereo not given) ?
inactive

Returns: the outcome recorded for Cc1ccc(-c2nc3ccccn3c2/C=C2/C(=O)Nc3cc(Cl)ccc32)cc1 in this assay.
inactive

What call does the record list for N#Cc1c(NC(=O)NCc2ccccc2)sc2c1CCCC2 ?
inactive

Answer briefly: the call reported for CC(=O)Nc1cccc(-c2ccc3c(c2)NC(=O)/C3=C\c2ccc[nH]2)c1 in this assay.
inactive

# lookup: test call for COc1cc2c(c(O)c1Cl)C(=O)c1c(O)cc(C[C@H](C)O)cc1[C@H]2[C@H]1c2cc(C[C@H](C)O)cc(O)c2C(=O)c2c1cc(OC)c(Cl)c2O
active

Which outcome was entered for the compound CCOC(=O)c1cc(C(=O)c2cc(OC)cc(OC)c2)n2ccc3ccccc3c12 in this test?
inactive

What outcome does the record of this test show for NCCCCCCNc1cc(-c2cccc(OC(F)(F)F)c2)nc2ccc(N3CCCC3)cc12 ?
active

Look up the recorded call for COc1ccc(/C=C/c2nc(Nc3ccc(S(=O)(=O)Nc4cc(C)on4)cc3)c3ccccc3n2)cc1 in this test.
inactive

Which outcome was assigned to COc1ccc(C(=O)c2nc3ccccc3n2CC(=O)c2ccc(F)cc2)cc1 in this test?
inactive

// param item: [O-][n+]1c(Cl)cc(Cl)c2ccccc21 ; yields the recorded call
inactive

Any idea what this test logged for N/C(=N\C(N)=N\c1nc2ccccc2s1)c1ccnc(Br)c1 ?
inactive

Status in this test for COc1ccc(/C=C/c2nc(Nc3ccc(Cl)cc3)c3ccccc3n2)cc1 ?
inactive

Would you mind telling me which call this test gave CC(C)N1C(=O)S/C(=C2/SC(=O)N(C(C)C)C2=O)C1=O ?
inactive

Dear colleague, could you share the recorded outcome for N=C(N)c1ccc(OCCCCCCCCCCOc2ccc(C(=N)N)cc2)cc1 when you have a moment?
active

Query: recorded result category for COc1ccc(CCn2cncc2-c2c[nH]c3ccccc23)cc1 in this test
inactive

So what was the verdict on CC(=O)c1ccc(NS(=O)(=O)c2cccc(C(=O)Nc3ccc(Br)cc3)c2)cc1 in this test?
inactive

Assay outcome for COc1cc2nc(-c3ccc(C(F)(F)F)cc3)cc(OCCCN3CCCC3)c2cc1OC : what was it?
active

Provenance of the data: PubChem BioAssay (NCI)
